meta.source: paper PMC11754111

# TARGET DESC: T1, BPTF PHD finger
# T1 chain: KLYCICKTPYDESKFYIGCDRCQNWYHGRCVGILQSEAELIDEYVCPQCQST
# ASSAY OVERVIEW: ITC
Where no end group is shown, it is not given here.
RECORDED ENDPOINT: pKd
# pKd = -log10(concentration in molar units)

Known results for binders:
BINDER	RESULT NUMBER
ARTKQTARKSTGGKA (trimethyl-lysine at 4; serotonylated glutamine at 5; C-terminal amide (general statement of the peptide synthesis)) [H3K4me3Q5ser histone H3 tail peptide (ITC)]	5.57
ARTK(Me3)QTARKSTGGKA-NH2 [H3K4me3 histone H3 tail peptide (ITC)]	5.74

Next binder, please.
Query: Report pKd for ARTKQTARKSTGGKA (trimethyl-lysine at 4; histaminylated glutamine at 5; C-terminal amide (general statement of the peptide synthesis)) [H3K4me3Q5his histone H3 tail peptide (ITC)] please.
Result: 5.71
